Biological target: AChE (Type VI-S; from Electrophorus electricus) (Electrophorus electricus, UniProt O42275)
Construct: AChE (Type VI-S; from Electrophorus electricus); purchased Sigma-Aldrich Type VI-S (catalogue number not given)
Sequence (O42275 24-633): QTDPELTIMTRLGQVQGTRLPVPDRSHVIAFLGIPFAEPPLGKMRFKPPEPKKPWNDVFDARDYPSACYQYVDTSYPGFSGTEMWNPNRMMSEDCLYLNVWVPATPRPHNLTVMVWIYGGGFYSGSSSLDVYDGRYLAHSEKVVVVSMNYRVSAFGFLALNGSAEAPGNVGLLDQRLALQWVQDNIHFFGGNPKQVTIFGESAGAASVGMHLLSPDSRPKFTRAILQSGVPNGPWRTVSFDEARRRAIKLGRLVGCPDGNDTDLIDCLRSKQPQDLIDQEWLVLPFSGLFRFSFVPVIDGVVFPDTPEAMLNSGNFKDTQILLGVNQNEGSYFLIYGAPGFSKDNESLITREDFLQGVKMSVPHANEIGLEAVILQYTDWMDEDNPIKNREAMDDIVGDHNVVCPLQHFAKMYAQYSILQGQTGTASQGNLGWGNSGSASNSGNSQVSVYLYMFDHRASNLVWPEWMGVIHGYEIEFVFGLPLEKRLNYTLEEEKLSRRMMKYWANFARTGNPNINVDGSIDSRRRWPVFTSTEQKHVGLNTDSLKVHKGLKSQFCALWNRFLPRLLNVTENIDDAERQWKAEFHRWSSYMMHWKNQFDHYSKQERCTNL
Test: biochemical
Conditions: selectivity index
attribute_measured: SI = IC50 of AChE/ IC50 of BChE

{"columns": ["molecule", "SI = IC50 of AChE/ IC50 of BChE"],
 "data": [
  ["C/C=C(/C)C(=O)O[C@@H]1[C@H](OC(=O)C(C)CC)c2c(ccc3ccc(=O)oc23)OC1(C)C (stereo partly shown)", "< 0.23"],
  ["C/C=C(/C)C(=O)O[C@@H]1c2c(ccc3ccc(=O)oc23)OC(C)(C)[C@@H]1OC(=O)C=C(C)C", "> 5.54"],
  ["CC(C)=CC(=O)O[C@@H]1c2c(ccc3ccc(=O)oc23)OC(C)(C)[C@@H]1OC(=O)CC(C)C", 2.89]
]}

What SI = IC50 of AChE/ IC50 of BChE value was documented for this molecule, CC(C)CC(=O)O[C@@H]1c2c(ccc3ccc(=O)oc23)OC(C)(C)[C@@H]1OC(=O)CC(C)C ?
< 0.70
